conditions: buffer; pH 7.4; 200.0 µM
Metric name: solubility kinetic (µg/mL)
Enter your answer as a number in µg/mL; do not include the unit.

Reported solubility kinetic of CCC1(C)Cc2c(sc3[nH]c(=S)[nH]c(=S)c23)CO1 (stereo unspecified) : 27.7

GET /value?item= `CC(=O)Nc1ccc(C2C(=O)c3ccccc3C2=O)cc1` &field=solubility kinetic returns 39

The compound `CC(=O)Nc1ncc(Cc2ccc(Cl)cc2Cl)s1` showed solubility kinetic equal to 1

The recorded solubility kinetic for entry `O=C(COC(=O)/C=C/c1ccc([N+](=O)[O-])cc1)NCc1cccs1` equals 4.2

Lab note: CCC1(c2ccc(F)cc2)NC(=O)N(CC(=O)NC2CCCC(C)C2C)C1=O (stereo unspecified) gave solubility kinetic of 13.2

Short answer for `O=c1c2ccccc2nc(-c2ccco2)n1CCc1ccc(O)cc1` : solubility kinetic was 7.9

For reference, reported solubility kinetic for `CSCCNCc1c(C(=O)N2CCOCC2)nc2c(C)cccn12` stands at 46.1
